Biological target: Prostaglandin D2 receptor 2 (Homo sapiens)
Sequence (Q9Y5Y4 whole entry): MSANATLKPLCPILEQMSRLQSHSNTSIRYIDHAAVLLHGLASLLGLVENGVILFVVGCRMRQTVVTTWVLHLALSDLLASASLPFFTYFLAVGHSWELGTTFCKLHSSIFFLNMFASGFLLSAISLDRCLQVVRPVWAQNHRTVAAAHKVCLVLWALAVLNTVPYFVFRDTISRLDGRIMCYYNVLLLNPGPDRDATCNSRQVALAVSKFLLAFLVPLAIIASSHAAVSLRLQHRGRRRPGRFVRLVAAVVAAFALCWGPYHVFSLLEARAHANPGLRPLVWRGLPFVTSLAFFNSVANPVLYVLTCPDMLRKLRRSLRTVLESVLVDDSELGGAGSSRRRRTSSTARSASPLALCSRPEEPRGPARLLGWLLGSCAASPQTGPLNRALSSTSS
Test: Antagonist activity at CRTh2 (unknown origin) stably expressed in PGD2-stimulated CHO.K1 cells preincubated for 1 hr by radio-labelled [35S]-GTPgammaS binding assay
Assay type: functional, cell-based
Settings: read-out: IC50
pIC50: −log10 of the molar value.
metric name: pIC50

Cc1ccc2c(CC(=O)O)cn(-c3ccc(F)cc3Cc3c(C)noc3C3CC3)c2n1 = 8.70

[I] Cc1ccc(-n2cc(CC(=O)O)c3ccc(C)nc32)c(Cn2c(C)nnc2C)c1
[II] Cc1ccc2c(CC(=O)O)cn(-c3ccc(Cl)cc3Cc3c(C)noc3Cc3ccccc3)c2n1
[III] Cc1ccc2c(CC(=O)O)cn(-c3ccc(Cl)cc3Cc3cncnc3)c2n1
[IV] CCCc1nc2ccccc2n1Cc1ccccc1-n1cc(CC(=O)O)c2ccc(C)nc21
Order the records so the highest pIC50 appears first and the lowest last. Hello, could you send the labels back in the order asked? Thank you.
II, I, IV, III

----------
Target: Prostaglandin D2 receptor 2 (Homo sapiens)
Sequence (whole entry): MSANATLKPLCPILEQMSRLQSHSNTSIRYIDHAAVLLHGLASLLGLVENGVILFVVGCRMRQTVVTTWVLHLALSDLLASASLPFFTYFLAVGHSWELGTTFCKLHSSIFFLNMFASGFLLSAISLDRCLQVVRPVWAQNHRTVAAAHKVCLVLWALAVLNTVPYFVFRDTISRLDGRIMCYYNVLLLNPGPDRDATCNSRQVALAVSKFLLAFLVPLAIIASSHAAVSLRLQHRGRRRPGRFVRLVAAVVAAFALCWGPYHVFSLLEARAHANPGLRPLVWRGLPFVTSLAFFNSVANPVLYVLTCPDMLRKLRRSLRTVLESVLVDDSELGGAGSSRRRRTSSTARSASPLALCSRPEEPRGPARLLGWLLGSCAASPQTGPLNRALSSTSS
Settings: CHO.K1
Description: Antagonist activity at CRTh2 (unknown origin) stably expressed in PGD2-stimulated CHO.K1 cells assessed as dissociation half-life at 10 times IC50 after 1 hr preincubation by radio-labelled [35S]-GTPgammaS binding assay
metric name: T1/2 (h)

// known answers, use as guide
Cc1ccc2c(CC(=O)O)cn(-c3ccc(F)cc3Cc3c(C)noc3C3CC3)c2n1 = 6
Cc1ccc(-n2cc(CC(=O)O)c3ccc(Cc4ccccc4)nc32)c(Cn2c(C)nnc2C)c1 = 20
CCCc1nc2ccccc2n1Cc1ccccc1-n1cc(CC(=O)O)c2ccc(C)nc21 = 0.6
Cc1ccc2c(CC(=O)O)cn(-c3ccc(C(F)(F)F)cc3Cc3c(C)noc3C3CC3)c2n1 = 13
Cc1ccc2c(CC(=O)O)cc(-c3ccc(C(F)(F)F)cc3Cc3c(C)noc3C3CC3)n2n1 = 14

[P] Cc1noc(C)c1Cc1cc(C(F)(F)F)ccc1-c1cn(CC(=O)O)c2ccc(F)cc12
[Q] CCN(Cc1cc(C(F)(F)F)ccc1-c1cc(CC(=O)O)ccc1OC)C(=O)C1CC1
[R] Cc1nnc(C2CC2)n1Cc1cc(C(F)(F)F)ccc1-c1cn(CC(=O)O)c2ccc(F)cc12
[S] CCN(Cc1cc(C(F)(F)F)ccc1-n1cc(CC(=O)O)c2ccc(C)nc21)C(C)=O
Exam item: list the entries in increasing order of T1/2. Hello, could you send the labels back in the order asked? Thank you.
Q, S, P, R
